Data origin: patent US12357631B2

Tested system: PB2 (Influenza A virus)
Sequence (P03428 whole entry, looked up): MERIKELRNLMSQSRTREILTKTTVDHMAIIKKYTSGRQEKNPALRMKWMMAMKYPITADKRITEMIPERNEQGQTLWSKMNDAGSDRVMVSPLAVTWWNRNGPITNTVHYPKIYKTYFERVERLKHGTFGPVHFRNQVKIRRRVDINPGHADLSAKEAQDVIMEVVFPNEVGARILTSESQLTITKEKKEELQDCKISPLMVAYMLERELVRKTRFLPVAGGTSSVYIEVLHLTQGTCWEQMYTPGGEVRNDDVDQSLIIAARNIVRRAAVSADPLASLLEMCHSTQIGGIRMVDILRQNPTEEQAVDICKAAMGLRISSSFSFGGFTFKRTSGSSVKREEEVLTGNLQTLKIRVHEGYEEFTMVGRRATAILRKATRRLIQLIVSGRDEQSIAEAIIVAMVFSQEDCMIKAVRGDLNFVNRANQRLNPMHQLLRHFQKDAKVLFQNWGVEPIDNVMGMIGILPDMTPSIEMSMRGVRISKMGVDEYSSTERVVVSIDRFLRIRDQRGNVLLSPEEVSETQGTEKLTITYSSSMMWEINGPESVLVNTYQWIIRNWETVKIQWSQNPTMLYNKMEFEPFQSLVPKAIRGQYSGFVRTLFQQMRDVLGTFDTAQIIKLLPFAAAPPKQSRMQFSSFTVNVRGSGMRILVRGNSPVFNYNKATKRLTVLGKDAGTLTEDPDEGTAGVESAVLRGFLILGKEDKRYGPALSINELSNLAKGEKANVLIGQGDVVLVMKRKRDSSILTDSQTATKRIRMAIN
Protocol summary: biochemical
Metric name: EC50

Past entries and their recorded results:
>>> recorded_result("CCOC(=O)CN1CCC[C@H](Nc2nc(-c3c[nH]c4ncc(F)cc34)ncc2F)C1 [Compound C11]")
"25 to 50 µM"
>>> recorded_result("CCOCCOCCCCCNC(=O)N(C)[C@H]1CCC[C@@H](Nc2nc(-c3c[nH]c4ncc(F)cc34)ncc2F)C1 [Compound A219]")
"25 to 50 µM"

Now, please, on to the next compound.
If you can, please state the reported EC50 value of CCOc1ccccc1OCCCCCN(C)C(=O)N[C@H]1CCC[C@@H](Nc2nc(-c3c[nH]c4ncc(F)cc34)ncc2F)C1 [Compound A225] . > 100 µM
